# Test system: HL-60
# assay: Cytotoxicity against human HL60 cells assessed as reduction in cell viability after 48 hrs by WST-8 assay
# Assay type: functional, cell-based
# recordedConditions: HL-60, 48 h
The following molecules are shown together with reported EC50 values.
Lab book: enter the figure in µM, no units written.

Check out these entries, answers already filled in.
[
  {
    "recordSmiles": "COc1cc(C[C@H]2COC(=O)[C@@H]2Cc2ccc(Cl)c(Cl)c2)ccc1O",
    "unitText": "µM",
    "EC50": 36
  },
  {
    "recordSmiles": "O=C1OC[C@H](Cc2ccc3c(c2)OCCO3)[C@H]1Cc1ccc(Cl)c(Cl)c1",
    "unitText": "µM",
    "EC50": 28
  },
  {
    "recordSmiles": "COc1ccc(C[C@H]2COC[C@@H]2Cc2ccc(Cl)c(Cl)c2)cc1O",
    "unitText": "µM",
    "EC50": 33
  }
]

Now let's try a different one.
Query: # get_value(readout='EC50', item= CCCCOc1ccc(/C=C2\C(=O)OC[C@@H]2Cc2ccccc2)cc1 )
Reply: 58

---

# System: HL-60
# assay: Cytotoxicity against human HL60 cells assessed as reduction in cell viability after 48 hrs by WST-8 assay
# Format: functional, cell-based
# recordedConditions: HL-60, 48 h
Classify: Satisfied when EC50 is strictly less than 30 µM; Not satisfied when EC50 is not.

Example results:
[
  {
    "recordSmiles": "O=C1OC[C@H](Cc2ccc3c(c2)OCO3)[C@H]1Cc1ccc(Cl)c(Cl)c1",
    "cat": "Not satisfied"
  },
  {
    "recordSmiles": "CCOc1ccccc1C[C@H]1COC[C@@H]1Cc1ccc(Cl)c(Cl)c1",
    "cat": "Satisfied"
  }
]

Now turn to the next molecule.
Query: Consider the molecule CCOc1ccccc1C[C@H]1COC(=O)[C@@H]1Cc1ccc(Cl)c(Cl)c1 . Is its EC50 strictly less than 30 µM?
Reply: Satisfied

---

# Test system: HL-60
# assay: Cytotoxicity against human HL60 cells assessed as reduction in cell viability after 48 hrs by WST-8 assay
# Assay type: functional, cell-based
# recordedConditions: HL-60, 48 h
propertyLabel: pEC50
Schema: pEC50 number; meaning minus log10 of the concentration expressed in molar units.

Check out these entries, answers already filled in.
[
  {
    "recordSmiles": "COCOc1cccc(C[C@H]2C(=O)OC[C@@H]2Cc2ccccc2)c1",
    "assaySystem": "HL-60",
    "measuredNumber": 4.10
  },
  {
    "recordSmiles": "O=C1OC[C@H](Cc2ccc(F)cc2)[C@H]1Cc1ccc(Cl)c(Cl)c1",
    "assaySystem": "HL-60",
    "measuredNumber": 4.85
  },
  {
    "recordSmiles": "COc1cc(C[C@H]2C(=O)OC[C@@H]2Cc2ccc(OC)c(OC)c2)ccc1O",
    "assaySystem": "HL-60",
    "measuredNumber": 4.92
  },
  {
    "recordSmiles": "COc1ccc(C[C@H]2COC(=O)[C@@H]2Cc2ccc(Cl)c(Cl)c2)cc1OC",
    "assaySystem": "HL-60",
    "measuredNumber": 4.62
  },
  {
    "recordSmiles": "CCCCOc1ccccc1C[C@H]1COC[C@@H]1Cc1ccc(Cl)c(Cl)c1",
    "assaySystem": "HL-60",
    "measuredNumber": 4.70
  }
]

Query: # get_value(readout='pEC50', item= Cc1ccc(C[C@H]2C(=O)OC[C@@H]2Cc2ccccc2)cc1C )
Reply: 4.46

Query: # get_value(readout='pEC50', item= CCc1ccc(C[C@H]2COC(=O)[C@@H]2Cc2ccc(Cl)c(Cl)c2)cc1 )
Reply: 4.80

Query: # get_value(readout='pEC50', item= Clc1ccc(C[C@H]2COC[C@@H]2Cc2ccc3c(c2)OCCO3)cc1Cl )
Reply: 4.42

Query: # get_value(readout='pEC50', item= O=C1OC[C@H](Cc2ccccc2)[C@H]1Cc1ccccc1 )
Reply: 4.11

Query: # get_value(readout='pEC50', item= O=C1OC[C@H](Cc2ccccc2)[C@H]1Cc1cc(Cl)cc(Cl)c1 )
Reply: 4.64

Query: # get_value(readout='pEC50', item= COCOc1ccccc1C[C@H]1C(=O)OC[C@@H]1Cc1ccccc1 )
Reply: 4.12

---

# Test system: HL-60
# assay: Cytotoxicity against human HL60 cells assessed as reduction in cell viability after 48 hrs by WST-8 assay
# Type: functional, cell-based
# recordedConditions: HL-60, 48 h
Classify: y when EC50 is strictly less than 30 µM; n when EC50 is not.

Example results:
[
  {
    "recordSmiles": "CCCCOc1cccc(C[C@H]2C(=O)OC[C@@H]2Cc2ccccc2)c1",
    "assaySystem": "HL-60",
    "cat": "y"
  },
  {
    "recordSmiles": "Cc1ccc(C[C@H]2C(=O)OC[C@@H]2Cc2ccccc2)cc1",
    "assaySystem": "HL-60",
    "cat": "n"
  },
  {
    "recordSmiles": "O=C1OC[C@H](Cc2cccc(O)c2)[C@H]1Cc1ccc(Cl)c(Cl)c1",
    "assaySystem": "HL-60",
    "cat": "n"
  },
  {
    "recordSmiles": "Cc1ccccc1C[C@H]1COC[C@@H]1Cc1ccc(Cl)c(Cl)c1",
    "assaySystem": "HL-60",
    "cat": "y"
  }
]

Query: Consider the molecule O=C1OC[C@H](Cc2ccccc2)[C@H]1Cc1ccccc1C(F)(F)F . Is its EC50 strictly less than 30 µM?
Reply: n

---

# Tested on: HL-60
# assay: Cytotoxicity against human HL60 cells assessed as reduction in cell viability after 48 hrs by WST-8 assay relative to control
# Type: functional
propertyLabel: inhibition (INH)
Hi, when you answer, please include the unit after the number. Thanks!

Check out these entries, answers already filled in.
[
  {
    "recordSmiles": "COc1cc(C[C@H]2C(=O)OC[C@@H]2Cc2ccccc2)cc(OC)c1OC",
    "assaySystem": "HL-60",
    "inhibition (INH)": "44%"
  },
  {
    "recordSmiles": "CCCCOc1ccc(C[C@H]2C(=O)OC[C@@H]2Cc2ccccc2)cc1OCCCC",
    "assaySystem": "HL-60",
    "inhibition (INH)": "29%"
  },
  {
    "recordSmiles": "COc1ccc(C[C@H]2C(=O)OC[C@@H]2Cc2ccccc2)cc1OC",
    "assaySystem": "HL-60",
    "inhibition (INH)": "38%"
  }
]

Query: # get_value(readout='inhibition (INH)', item= CCCCCCCOc1ccc(C[C@H]2C(=O)OC[C@@H]2Cc2ccccc2)cc1 )
Reply: 17%

Query: # get_value(readout='inhibition (INH)', item= CCCCOc1ccc(/C=C2/C(=O)OC[C@@H]2Cc2ccccc2)cc1 )
Reply: 36%

Query: # get_value(readout='inhibition (INH)', item= O=C1OC[C@H](Cc2ccccc2)[C@H]1Cc1cccc(O)c1 )
Reply: 45%

---

The following compounds are shown together with reported EC50 values.
# System: HL-60
# assay: Cytotoxicity against human HL60 cells assessed as reduction in cell viability after 48 hrs by WST-8 assay
# Type: functional, cell-based
# recordedConditions: HL-60, 48 h
Lab book: enter the figure in µM, no units written.

[
  {
    "recordSmiles": "O=C1OC[C@H](Cc2ccccc2)[C@H]1Cc1ccc(Cl)cc1",
    "unitText": "µM",
    "EC50": 36
  },
  {
    "recordSmiles": "O=C1OC[C@H](Cc2ccccc2)[C@H]1Cc1ccccc1F",
    "unitText": "µM",
    "EC50": 72
  },
  {
    "recordSmiles": "Cc1ccc(C[C@H]2COC(=O)[C@@H]2Cc2ccc(Cl)c(Cl)c2)cc1",
    "unitText": "µM",
    "EC50": 19
  },
  {
    "recordSmiles": "O=C1OC[C@H](Cc2ccc(O)cc2)[C@H]1Cc1ccc(Cl)c(Cl)c1",
    "unitText": "µM",
    "EC50": 37
  },
  {
    "recordSmiles": "CCCCCCCOc1ccccc1C[C@H]1C(=O)OC[C@@H]1Cc1ccccc1",
    "unitText": "µM",
    "EC50": 75
  }
]

Query: # get_value(readout='EC50', item= O=C1OC[C@H](Cc2ccccc2)[C@H]1Cc1ccc(Cl)cc1Cl )
Reply: 19

Query: # get_value(readout='EC50', item= Cc1cccc(C[C@H]2COC(=O)[C@@H]2Cc2ccc(Cl)c(Cl)c2)c1 )
Reply: 22

---

The following molecules are shown together with reported EC50 values.
# Tested on: HL-60
# assay: Cytotoxicity against human HL60 cells assessed as reduction in cell viability after 48 hrs by WST-8 assay
# Assay type: functional, cell-based
# recordedConditions: HL-60, 48 h
Lab book: enter the figure in µM, no units written.

[
  {
    "recordSmiles": "CCCCOc1ccc(C[C@H]2C(=O)OC[C@@H]2Cc2ccccc2)cc1",
    "unitText": "µM",
    "EC50": 23
  },
  {
    "recordSmiles": "CCCCCCCOc1cccc(C[C@H]2C(=O)OC[C@@H]2Cc2ccccc2)c1",
    "unitText": "µM",
    "EC50": 81
  },
  {
    "recordSmiles": "O=C1OC[C@H](Cc2ccc(Cl)c(Cl)c2)[C@H]1Cc1ccc(Cl)c(Cl)c1",
    "unitText": "µM",
    "EC50": 20
  }
]

Query: # get_value(readout='EC50', item= O=C1OC[C@H](Cc2ccccc2)[C@H]1Cc1ccc(C(F)(F)F)cc1 )
Reply: 22

Query: # get_value(readout='EC50', item= Cc1ccccc1C[C@H]1COC(=O)[C@@H]1Cc1ccc(Cl)c(Cl)c1 )
Reply: 22
